Measured HEK-Blue activity, +100 nM BP, DF-100,000 by item
Biological target: T1, interleukin 18 binding protein (IL-18BP) (UniProt O95998 31-194)
T1 sequence (looked up): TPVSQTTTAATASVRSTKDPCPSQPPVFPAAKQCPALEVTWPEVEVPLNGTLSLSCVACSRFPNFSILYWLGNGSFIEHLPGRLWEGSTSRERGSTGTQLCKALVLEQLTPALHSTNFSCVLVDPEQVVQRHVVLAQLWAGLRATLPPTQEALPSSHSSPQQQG
Experiment: cell-based or functional assay
Please state the value as a number alone, without comment.

Solved cases below.
[
  {
    "binder": "IL-18 variant K53T, S55G, P107A, H109Q (ligand) YFGKLESKLSVIRNLNDQVLFIDQGNRPLFEDMTDSDMRDNAPRTIFIISMYTDGQPRGMAVTISVKSEKISTLSSENKIISFKEMNPPDNIKDTKSDIIFFQRSVAGQDNKMQFESSSYEGYFLASEKERDLFKLILKKEDELGDRSIMFTVQNED",
    "recorded.result": 0.16
  },
  {
    "binder": "IL-18 variant K53G, S55I, R104K, P107Y (ligand) YFGKLESKLSVIRNLNDQVLFIDQGNRPLFEDMTDSDMRDNAPRTIFIISMYGDIQPRGMAVTISVKSEKISTLSSENKIISFKEMNPPDNIKDTKSDIIFFQKSVYGHDNKMQFESSSYEGYFLASEKERDLFKLILKKEDELGDRSIMFTVQNED",
    "recorded.result": 0.09
  },
  {
    "binder": "IL-18 variant K53N, S55H, H109F (ligand) YFGKLESKLSVIRNLNDQVLFIDQGNRPLFEDMTDSDMRDNAPRTIFIISMYNDHQPRGMAVTISVKSEKISTLSSENKIISFKEMNPPDNIKDTKSDIIFFQRSVPGFDNKMQFESSSYEGYFLASEKERDLFKLILKKEDELGDRSIMFTVQNED",
    "recorded.result": 0.09
  },
  {
    "binder": "IL-18 variant T34S, S36L, D37E, D40Y, N41M, K53T, S55K, P107K, H109Q (ligand) YFGKLESKLSVIRNLNDQVLFIDQGNRPLFEDMSDLEMRYMAPRTIFIISMYTDKQPRGMAVTISVKSEKISTLSSENKIISFKEMNPPDNIKDTKSDIIFFQRSVKGQDNKMQFESSSYEGYFLASEKERDLFKLILKKEDELGDRSIMFTVQNED",
    "recorded.result": 0.1
  }
]

Return value of HEK-Blue activity, +100 nM BP, DF-100,000 for input IL-18 variant K53G, S55P, R104K, H109Y (ligand) YFGKLESKLSVIRNLNDQVLFIDQGNRPLFEDMTDSDMRDNAPRTIFIISMYGDPQPRGMAVTISVKSEKISTLSSENKIISFKEMNPPDNIKDTKSDIIFFQKSVPGYDNKMQFESSSYEGYFLASEKERDLFKLILKKEDELGDRSIMFTVQNED , no commentary.
0.09

Return value of HEK-Blue activity, +100 nM BP, DF-100,000 for input IL-18 variant K53H, S55G (ligand) YFGKLESKLSVIRNLNDQVLFIDQGNRPLFEDMTDSDMRDNAPRTIFIISMYHDGQPRGMAVTISVKSEKISTLSSENKIISFKEMNPPDNIKDTKSDIIFFQRSVPGHDNKMQFESSSYEGYFLASEKERDLFKLILKKEDELGDRSIMFTVQNED , no commentary.
0.09

Return value of HEK-Blue activity, +100 nM BP, DF-100,000 for input IL-18 variant K53H, S55Q (ligand) YFGKLESKLSVIRNLNDQVLFIDQGNRPLFEDMTDSDMRDNAPRTIFIISMYHDQQPRGMAVTISVKSEKISTLSSENKIISFKEMNPPDNIKDTKSDIIFFQRSVPGHDNKMQFESSSYEGYFLASEKERDLFKLILKKEDELGDRSIMFTVQNED , no commentary.
0.1
